molecular target: HLA-A*02:01 (Homo sapiens, UniProt P04439, D140Y/D185E/D98H/E176V/E277Q/G131W/G231S/I119V/I121R/I166T/I218V/L300P/L318F/N151K/N90K/P208A/P217A/Q86G/Q94H/R138H/R169H/T345S); assay: MHC binding assay (UV-ligand exchange, beta2m ELISA); details: peptide exchange yield, HLA-A*02:01, UV-ligand exchange
measured-attribute: Peptide exchange (MHC class I binding score)

Some substances with known Peptide exchange (MHC class I binding score) results, for comparison:
85 (FVMSEIRTV; listed as Homo sapiens) [compound 85] :: +++ (≥50 = +++)
5 (YLYPNLTRL; listed as Homo sapiens) [compound 5] :: ++ (≥20% = ++)
38 (VLLDTILQL; listed as Homo sapiens) [compound 38] :: +++ (≥50 = +++)
103 (KLQDGLLHI; listed as Homo sapiens) [compound 103] :: ++ (≥20% = ++)
34 (ELNNQNFYL; listed as Homo sapiens) [compound 34] :: +++ (≥50 = +++)
62 (VLAGPAFLVQL; listed as Homo sapiens) [compound 62] :: +++ (≥50 = +++)

Request: Query Peptide exchange (MHC class I binding score) for 57 (SLQKEILYL; listed as Homo sapiens) [compound 57]
Result: ++ (≥20% = ++)

Request: Query Peptide exchange (MHC class I binding score) for 6 (VLFELSKTV; listed as Homo sapiens) [compound 6]
Result: +++ (≥50 = +++)

Request: Query Peptide exchange (MHC class I binding score) for 81 (SLLPALPKL; listed as Homo sapiens) [compound 81]
Result: ++ (≥20% = ++)

Request: Query Peptide exchange (MHC class I binding score) for 67 (LLDVLAPLV; listed as Homo sapiens) [compound 67]
Result: ++ (≥20% = ++)

Request: Query Peptide exchange (MHC class I binding score) for 10 (KLLQNNYGL; listed as Homo sapiens) [compound 10]
Result: ++ (≥20% = ++)

Request: Query Peptide exchange (MHC class I binding score) for 8 (GLASFKSFL; listed as Homo sapiens) [compound 8]
Result: ++ (≥20% = ++)

Request: Query Peptide exchange (MHC class I binding score) for 63 (GLIEDHFDVTV; listed as Homo sapiens) [compound 63]
Result: ++ (≥20% = ++)

Request: Query Peptide exchange (MHC class I binding score) for 95 (KLTDVGIATL; listed as Homo sapiens) [compound 95]
Result: ++ (≥20% = ++)

Request: Query Peptide exchange (MHC class I binding score) for 64 (LLAASVALA; listed as Homo sapiens) [compound 64]
Result: ++ (≥20% = ++)

Request: Query Peptide exchange (MHC class I binding score) for 61 (SLMGILLRI; listed as Homo sapiens) [compound 61]
Result: ++ (≥20% = ++)

Request: Query Peptide exchange (MHC class I binding score) for 41 (GLLKTLQKL; listed as Homo sapiens) [compound 41]
Result: ++ (≥20% = ++)

Request: Query Peptide exchange (MHC class I binding score) for 31 (VLFGLDPAVIKV; listed as Homo sapiens) [compound 31]
Result: +++ (≥50 = +++)

Request: Query Peptide exchange (MHC class I binding score) for 51 (NLWPMILTL; listed as Homo sapiens) [compound 51]
Result: +++ (≥50 = +++)

Request: Query Peptide exchange (MHC class I binding score) for 17 (ILAQQVHAL; listed as Homo sapiens) [compound 17]
Result: +++ (≥50 = +++)

* * *

target: HLA-A*02:01 (Homo sapiens, UniProt P04439, D140Y/D185E/D98H/E176V/E277Q/G131W/G231S/I119V/I121R/I166T/I218V/L300P/L318F/N151K/N90K/P208A/P217A/Q86G/Q94H/R138H/R169H/T345S); test: MHC binding assay (UV-ligand exchange, beta2m ELISA); conditions: peptide exchange yield, HLA-A*02:01, UV-ligand exchange
measured-attribute: Peptide exchange (MHC class I binding score)

Some substances with known Peptide exchange (MHC class I binding score) results, for comparison:
108 (VLISVLQAI; listed as Homo sapiens) [compound 108] :: ++ (≥20% = ++)
76 (VLADDHLIEV; listed as Homo sapiens) [compound 76] :: ++ (≥20% = ++)
23 (YIQEVVQYI; listed as Homo sapiens) [compound 23] :: +++ (≥50 = +++)
44 (ALFSFVTAL; listed as Homo sapiens) [compound 44] :: +++ (≥50 = +++)
55 (YLALILPVL; listed as Homo sapiens) [compound 55] :: ++ (≥20% = ++)
12 (ALDPSGNQLI; listed as Homo sapiens) [compound 12] :: ++ (≥20% = ++)
30 (QLFYTKIFL; listed as Homo sapiens) [compound 30] :: ++ (≥20% = ++)
96 (TLAETLVNL; listed as Homo sapiens) [compound 96] :: +++ (≥50 = +++)

Request: Query Peptide exchange (MHC class I binding score) for 98 (KIPPVSPSI; listed as Homo sapiens) [compound 98]
Result: ++ (≥20% = ++)

* * *

target: HLA-A*02:01 (Homo sapiens, UniProt P04439, D140Y/D185E/D98H/E176V/E277Q/G131W/G231S/I119V/I121R/I166T/I218V/L300P/L318F/N151K/N90K/P208A/P217A/Q86G/Q94H/R138H/R169H/T345S); experiment: MHC binding assay (UV-ligand exchange, beta2m ELISA); conditions: peptide exchange yield, HLA-A*02:01, UV-ligand exchange
measured-attribute: Peptide exchange (MHC class I binding score)

Some substances with known Peptide exchange (MHC class I binding score) results, for comparison:
18 (YVLDLAAKV; listed as Homo sapiens) [compound 18] :: +++ (≥50 = +++)
84 (YLMDEGAHL; listed as Homo sapiens) [compound 84] :: ++ (≥20% = ++)
39 (YLLNLNHLGL; listed as Homo sapiens) [compound 39] :: +++ (≥50 = +++)
78 (ALLDTVVQA; listed as Homo sapiens) [compound 78] :: ++ (≥20% = ++)
70 (SLTALRLLL; listed as Homo sapiens) [compound 70] :: ++ (≥20% = ++)
104 (ALFEGVVRQI; listed as Homo sapiens) [compound 104] :: +++ (≥50 = +++)

Request: Query Peptide exchange (MHC class I binding score) for 71 (ALDGHLYAV; listed as Homo sapiens) [compound 71]
Result: +++ (≥50 = +++)

Request: Query Peptide exchange (MHC class I binding score) for 3 (RLLGEVQAL; listed as Homo sapiens) [compound 3]
Result: ++ (≥20% = ++)

Request: Query Peptide exchange (MHC class I binding score) for 73 (GLDGIPFTV; listed as Homo sapiens) [compound 73]
Result: +++ (≥50 = +++)

Request: Query Peptide exchange (MHC class I binding score) for 9 (ILLQKPDSV; listed as Homo sapiens) [compound 9]
Result: ++ (≥20% = ++)

Request: Query Peptide exchange (MHC class I binding score) for 35 (VLHSLQTQL; listed as Homo sapiens) [compound 35]
Result: ++ (≥20% = ++)

Request: Query Peptide exchange (MHC class I binding score) for 105 (ALADLDELLIRA; listed as Homo sapiens) [compound 105]
Result: +++ (≥50 = +++)

* * *

biological target: HLA-A*02:01 (Homo sapiens, UniProt P04439, D140Y/D185E/D98H/E176V/E277Q/G131W/G231S/I119V/I121R/I166T/I218V/L300P/L318F/N151K/N90K/P208A/P217A/Q86G/Q94H/R138H/R169H/T345S); assay: MHC binding assay (UV-ligand exchange, beta2m ELISA); details: peptide exchange yield, HLA-A*02:01, UV-ligand exchange
measured-attribute: Peptide exchange (MHC class I binding score)

Some substances with known Peptide exchange (MHC class I binding score) results, for comparison:
42 (VILDTGTIQL; listed as Homo sapiens) [compound 42] :: ++ (≥20% = ++)
50 (SLSDHIVLL; listed as Homo sapiens) [compound 50] :: ++ (≥20% = ++)
46 (GLSEVLVQI; listed as Homo sapiens) [compound 46] :: +++ (≥50 = +++)
91 (MLLSSLVSL; listed as Homo sapiens) [compound 91] :: ++ (≥20% = ++)

Request: Query Peptide exchange (MHC class I binding score) for 11 (FIQTEAPKEV; listed as Homo sapiens) [compound 11]
Result: ++ (≥20% = ++)

Request: Query Peptide exchange (MHC class I binding score) for 107 (VLMDLKALLL; listed as Homo sapiens) [compound 107]
Result: +++ (≥50 = +++)
